MEASURED ON: human GLP-1 receptor (human) (UniProt P43220)
Sequence (P43220 24-463): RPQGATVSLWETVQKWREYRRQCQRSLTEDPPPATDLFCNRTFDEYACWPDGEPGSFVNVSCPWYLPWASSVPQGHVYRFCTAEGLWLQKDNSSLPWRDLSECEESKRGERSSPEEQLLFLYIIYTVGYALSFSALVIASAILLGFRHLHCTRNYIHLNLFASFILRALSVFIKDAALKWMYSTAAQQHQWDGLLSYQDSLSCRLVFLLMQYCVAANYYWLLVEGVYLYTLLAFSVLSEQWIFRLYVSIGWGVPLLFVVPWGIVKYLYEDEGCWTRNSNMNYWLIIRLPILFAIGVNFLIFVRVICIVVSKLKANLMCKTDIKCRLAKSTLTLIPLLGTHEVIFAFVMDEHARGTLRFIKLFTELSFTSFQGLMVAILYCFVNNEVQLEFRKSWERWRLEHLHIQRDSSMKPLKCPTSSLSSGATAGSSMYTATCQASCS
ASSAY METHOD TEXT: cell-based or functional assay
METRIC NAME: cAMP EC50 (nM)
Please give a number only; it is taken to be in nM.

In the examples that follow, each entry is paired with its recorded cAMP EC50.
IP364 (Fc fusion) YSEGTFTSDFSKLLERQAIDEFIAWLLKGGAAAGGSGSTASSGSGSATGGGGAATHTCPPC | 0.18
IP332 (Fc fusion) YSEGTFTSDYSIALAAAAQQDFVNWLLAGGGGGGGSGGGGSGGGGSGGGGSGGGGSGGGGSA | 98
IP348 (Fc fusion) YSEGTFTSDYSKLLERQAIDEFIASLLKGGGGGGGSGGGGSGGGGSGGGGSGGGGSGGGGSA | 0.29
IP366 (Fc fusion) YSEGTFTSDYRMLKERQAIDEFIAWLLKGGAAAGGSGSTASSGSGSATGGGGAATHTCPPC | 6.1
IP367 (Fc fusion) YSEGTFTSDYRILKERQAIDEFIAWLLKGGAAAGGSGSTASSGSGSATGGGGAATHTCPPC | 4.4
IP389 (Fc fusion) YSEGTFISDYSIAMDKIHQQDFVNWLLAQKGGGGGSGGGGSGGGGSGGGGSGGGGSGGGGSGGGGSACPPC | 65

Now consider the entry below.
Query: Would you kindly share the measured cAMP EC50 for IP173 (Fc fusion) YSEGTFTSDVSSYLEEQAAKEFIAWLLAGAAAGGSGSTASSGSGSATGGGGAATHTCPPCPAPEF ?
Reply: 0.23
